target: purified human, His-tagged PRC2 complex (Homo sapiens, UniProt O75530+Q15910); test: Hot Spot HMT assay: inhibition of PRC2 enzymatic activity (transfer of tritiated methyl from SAM to core histone, filter binding); format: biochemical
Sequence (Q15910 whole entry): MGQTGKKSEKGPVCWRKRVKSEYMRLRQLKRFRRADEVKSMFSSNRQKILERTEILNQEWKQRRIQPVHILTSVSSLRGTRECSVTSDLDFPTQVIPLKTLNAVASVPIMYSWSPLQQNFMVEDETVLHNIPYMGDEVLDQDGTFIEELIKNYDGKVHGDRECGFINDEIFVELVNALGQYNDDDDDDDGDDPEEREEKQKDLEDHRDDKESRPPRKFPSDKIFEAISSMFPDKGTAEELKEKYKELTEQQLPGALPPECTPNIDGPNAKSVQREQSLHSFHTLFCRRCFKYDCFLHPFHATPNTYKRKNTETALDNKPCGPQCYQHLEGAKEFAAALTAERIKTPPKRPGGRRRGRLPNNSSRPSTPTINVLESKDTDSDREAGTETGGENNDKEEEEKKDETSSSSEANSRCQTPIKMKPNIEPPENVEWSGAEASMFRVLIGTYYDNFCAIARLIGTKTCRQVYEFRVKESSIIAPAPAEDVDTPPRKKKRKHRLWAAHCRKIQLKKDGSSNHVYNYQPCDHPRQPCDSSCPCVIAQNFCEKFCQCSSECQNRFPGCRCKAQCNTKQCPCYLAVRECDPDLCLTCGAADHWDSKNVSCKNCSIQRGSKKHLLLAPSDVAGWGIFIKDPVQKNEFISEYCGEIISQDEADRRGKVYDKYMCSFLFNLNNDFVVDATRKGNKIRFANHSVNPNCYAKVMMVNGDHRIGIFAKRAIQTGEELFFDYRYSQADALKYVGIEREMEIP
Sequence (O75530 whole entry): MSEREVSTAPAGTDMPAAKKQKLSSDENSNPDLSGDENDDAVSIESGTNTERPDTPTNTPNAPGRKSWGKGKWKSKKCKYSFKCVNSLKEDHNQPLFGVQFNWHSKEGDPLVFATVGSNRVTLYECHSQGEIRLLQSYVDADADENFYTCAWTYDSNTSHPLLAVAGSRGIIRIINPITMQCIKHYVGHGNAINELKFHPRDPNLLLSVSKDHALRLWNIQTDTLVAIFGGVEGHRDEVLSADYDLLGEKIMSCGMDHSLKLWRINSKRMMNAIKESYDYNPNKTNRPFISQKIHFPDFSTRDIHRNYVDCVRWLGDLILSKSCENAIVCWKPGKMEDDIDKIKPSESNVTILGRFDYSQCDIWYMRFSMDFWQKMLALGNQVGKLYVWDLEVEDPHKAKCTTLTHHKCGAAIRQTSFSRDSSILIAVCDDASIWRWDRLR
Sequence (Q15022 whole entry partner): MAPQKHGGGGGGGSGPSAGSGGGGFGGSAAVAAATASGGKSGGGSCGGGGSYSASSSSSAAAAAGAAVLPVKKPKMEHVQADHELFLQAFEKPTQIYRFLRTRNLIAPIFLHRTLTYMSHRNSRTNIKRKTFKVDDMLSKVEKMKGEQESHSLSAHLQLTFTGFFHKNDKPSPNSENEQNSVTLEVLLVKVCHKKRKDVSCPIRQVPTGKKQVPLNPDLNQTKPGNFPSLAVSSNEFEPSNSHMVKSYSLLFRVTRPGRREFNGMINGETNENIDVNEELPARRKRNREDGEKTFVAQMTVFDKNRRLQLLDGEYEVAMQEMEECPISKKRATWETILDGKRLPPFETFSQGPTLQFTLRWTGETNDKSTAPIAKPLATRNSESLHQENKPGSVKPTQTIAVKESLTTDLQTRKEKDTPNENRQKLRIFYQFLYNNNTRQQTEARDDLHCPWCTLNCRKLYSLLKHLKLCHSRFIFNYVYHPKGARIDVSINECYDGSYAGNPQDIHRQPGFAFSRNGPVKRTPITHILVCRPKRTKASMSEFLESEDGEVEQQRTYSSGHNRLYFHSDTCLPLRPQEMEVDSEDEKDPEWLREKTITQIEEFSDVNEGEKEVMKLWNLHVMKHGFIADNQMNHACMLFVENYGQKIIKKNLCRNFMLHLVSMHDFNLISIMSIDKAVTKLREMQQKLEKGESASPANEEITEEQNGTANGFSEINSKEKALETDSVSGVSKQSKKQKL
Sequence (Q6ZN18 whole entry partner): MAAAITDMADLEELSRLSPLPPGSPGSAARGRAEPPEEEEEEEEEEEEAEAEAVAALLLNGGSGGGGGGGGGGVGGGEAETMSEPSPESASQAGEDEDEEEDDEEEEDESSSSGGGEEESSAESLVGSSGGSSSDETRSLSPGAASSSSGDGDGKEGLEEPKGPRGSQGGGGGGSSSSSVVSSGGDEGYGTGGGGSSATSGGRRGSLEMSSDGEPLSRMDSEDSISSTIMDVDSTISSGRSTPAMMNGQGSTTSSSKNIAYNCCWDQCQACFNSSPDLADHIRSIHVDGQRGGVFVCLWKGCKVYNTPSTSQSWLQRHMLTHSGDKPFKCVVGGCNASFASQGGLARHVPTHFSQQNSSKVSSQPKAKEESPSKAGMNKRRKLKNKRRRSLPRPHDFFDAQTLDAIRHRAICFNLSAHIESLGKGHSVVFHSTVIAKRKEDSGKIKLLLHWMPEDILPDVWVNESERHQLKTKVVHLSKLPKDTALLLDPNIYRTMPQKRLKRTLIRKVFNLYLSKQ
Sequence (Q09028 whole entry partner): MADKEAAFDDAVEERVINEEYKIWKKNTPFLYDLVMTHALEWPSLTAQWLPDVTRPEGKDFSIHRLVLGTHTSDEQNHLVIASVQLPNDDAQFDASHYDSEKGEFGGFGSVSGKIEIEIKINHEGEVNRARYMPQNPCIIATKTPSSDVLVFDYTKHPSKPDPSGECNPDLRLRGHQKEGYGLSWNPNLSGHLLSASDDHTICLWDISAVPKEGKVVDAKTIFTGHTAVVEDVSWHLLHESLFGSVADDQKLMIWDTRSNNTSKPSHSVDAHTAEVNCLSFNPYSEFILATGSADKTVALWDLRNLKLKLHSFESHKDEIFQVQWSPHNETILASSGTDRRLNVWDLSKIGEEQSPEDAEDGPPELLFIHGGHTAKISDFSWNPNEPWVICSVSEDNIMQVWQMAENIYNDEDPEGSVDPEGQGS

| Molecule | IC50 |
| --- | --- |
| CN(C)Cc1cc(-c2cnc(NCc3c(F)ccc4c3CCO4)n3cc(C#N)nc23)n(C)n1 | < 100 nM |
| CNCc1cc(-c2cnc(NCc3c(F)ccc4c3CCO4)n3cc(C#N)nc23)n(C)n1 | < 100 nM |

----------
tested on: Karpas 422 cells; assay: Karpas 422 cell viability, CTG (Cell Titre Glo) assay; assay type: cell-based, human; conditions: Homo sapiens; Inhibition of proliferation of Karpas 422 cells (EZH2 Y641N); viability measured Day 4, Day 7 or Day 11, time point of the tabulated values not stated
Readout Name: IC50

| Compound | Test Value |
| --- | --- |
| Cc1nc(N2CCN(C)CC2)ccc1-c1cnc(NCc2c(F)ccc3c2CCO3)n2cc(C(N)=O)nc12 | ≤ 250 nM |
| Cc1nn(C(C)C)cc1-c1cnc(NCc2c(F)ccc3c2CCO3)n2cc(C(N)=O)nc12 | 250 to 500 nM |
| N#Cc1cn2c(NCc3c(F)ccc4c3CCO4)ncc(-c3ccc(C4CCCO4)cc3)c2n1 (centres unmarked) | 250 to 500 nM |
| CN(C)Cc1ccc(-c2cnc(NCc3c(F)ccc4c3CCO4)n3cc(C#N)nc23)cc1 | ≤ 250 nM |
| CN(C)CCc1cccc(-c2cnc(NCc3c(F)ccc4c3CCO4)n3cc(C#N)nc23)c1 | ≤ 250 nM |
| N#Cc1cn2c(NCc3c(F)ccc4c3CCO4)ncc(-c3ccn(CC4CCCO4)n3)c2n1 (centres unmarked) | 250 to 500 nM |
| Cc1cc(-c2cnc(NCc3c(F)ccc4c3CCO4)n3cc(C#N)nc23)cnn1 | ≤ 250 nM |
| N#Cc1cn2c(NCc3c(F)ccc4c3CCO4)ncc(-c3cncc(F)c3)c2n1 | ≤ 250 nM |
